test: Distribution coefficient, log D at pH 7.8; assay type: physicochemical; conditions: octanol/water
quantity: logD

Completed entries (count: 5):
| given.smiles | quantity | test.result |
| --- | --- | --- |
| O=C(O)c1coc(Cc2cc(Cl)ccc2OCc2ccccc2)n1 | logD | 0.5 |
| Cc1cc(C(=O)O)nn1Cc1cc(Cl)ccc1OCc1ccccc1 | logD | 1 |
| O=C(O)c1ccc(Cc2cc(Cl)ccc2OCc2ccccc2)s1 | logD | 2.3 |
| O=C(O)c1ccc(Cc2cc(Cl)ccc2OCc2ccccc2)o1 | logD | 1.5 |
| O=C(O)c1cncc(Cc2cc(Cl)ccc2OCc2ccccc2)c1 | logD | 1.4 |

I = O=C(O)c1csc(Cc2cc(Cl)ccc2OCc2ccccc2)n1
II = O=C(O)c1csc(Cc2cc(Cl)ccc2OCc2ccccc2)c1
III = O=C(O)c1c[nH]c(Cc2cc(Cl)ccc2OCc2ccccc2)n1
IV = Cc1cc(C(=O)O)oc1Cc1cc(Cl)ccc1OCc1ccccc1
Task item: Ranking field: logD; order: falling. Form entry: ranked labels (order as requested).
Reply: II, IV, I, III
(II: 2.8, IV: 1.8, I: 1.2, III: 0.6)

A = O=C(O)c1ccnc(Cc2cc(Cl)ccc2OCc2ccccc2)c1
B = O=C(O)c1cccc(Cc2cc(Cl)ccc2OCc2ccccc2)n1
C = Cn1c(C(=O)O)cnc1Cc1cc(Cl)ccc1OCc1ccccc1
Task item: Sequence the entries by logD, beginning with the highest number. Ranked list of labels, please, in the requested order.
Reply: B, A, C

a = O=C(O)c1cnc(Cc2cc(Cl)ccc2OCc2ccccc2)s1
b = Cc1cc(C(=O)O)cn1Cc1cc(Cl)ccc1OCc1ccccc1
Task item: Would you kindly point out which of a and b has the smaller logD figure? Give the label of your selection.
Reply: a
(a: 0.9, b: 3)

1 = Cc1cc(C(=O)O)nn1Cc1cc(Br)ccc1OCc1ccccc1
2 = Cc1ccc(-c2cc(Cl)ccc2OCc2ccccc2)n1-c1cccc(C(=O)O)c1
Task item: Which entry shows the lesser value of logD here, 1 or 2 ? Provide the label of your selected option as the answer.
Reply: 1

###

Biological target: Prostaglandin E2 receptor EP1 subtype (Homo sapiens, UniProt P34995)
Sequence (P34995 whole entry): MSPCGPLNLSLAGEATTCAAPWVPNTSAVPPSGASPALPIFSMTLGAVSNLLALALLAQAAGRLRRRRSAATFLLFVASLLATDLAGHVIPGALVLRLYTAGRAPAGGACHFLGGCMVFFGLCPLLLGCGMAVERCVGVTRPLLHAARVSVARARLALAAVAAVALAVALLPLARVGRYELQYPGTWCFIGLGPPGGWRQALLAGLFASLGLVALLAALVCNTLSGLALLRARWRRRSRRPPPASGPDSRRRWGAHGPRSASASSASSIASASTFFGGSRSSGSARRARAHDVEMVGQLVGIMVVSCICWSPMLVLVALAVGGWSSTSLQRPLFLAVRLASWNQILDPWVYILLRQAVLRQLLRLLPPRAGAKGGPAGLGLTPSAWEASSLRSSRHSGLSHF
quantity: IC50 (nM)

Here's what some known entries look like.
| given.smiles | test.result |
| --- | --- |
| Cn1cc(C(=O)O)nc1Cc1cc(Cl)ccc1OCc1ccccc1 | 316 |
| Cc1cc(C(=O)O)nn1Cc1cc(Cl)ccc1OCC(C)C | 10 |
| O=C(O)c1csc(Cc2cc(Cl)ccc2OCc2ccccc2)c1 | 39.8 |
| O=C(O)c1ccc(Cc2cc(Cl)ccc2OCc2ccccc2)o1 | 6.31 |
| O=C(O)c1ccc(Cc2cc(Cl)ccc2OCc2ccccc2)s1 | 50.1 |

a = O=C(O)c1cnc(Cc2cc(Cl)ccc2OCc2ccccc2)s1
b = Cc1cc(C(=O)O)nn1Cc1cc(Cl)ccc1OCc1ccccc1
Task item: Could you check which of a and b has a smaller value for IC50? To answer, give the label that identifies your chosen option.
Reply: b

I = CC(C)COc1ccc(Cl)cc1Cc1nc(C(=O)O)cs1
II = O=C(O)c1cccc(Cc2cc(Cl)ccc2OCc2ccccc2)c1
III = O=C(O)c1cncc(Cc2cc(Cl)ccc2OCc2ccccc2)c1
Task item: Order the items by recorded IC50; the first position goes to the largest value. Form entry: labels listed in requested order.
Reply: III, II, I
(III: 631 nM, II: 316 nM, I: 7.94 nM)

###

test: Distribution coefficient, log D at pH 7.8; format: physicochemical; details: octanol/water
quantity: logD

| given.smiles | quantity | test.result |
| --- | --- | --- |
| Cc1ccc(-c2cc(Cl)ccc2OCC(C)C)n1-c1cccc(C(=O)O)c1 | logD | 3.1 |
| O=C(O)c1ccn(Cc2cc(Cl)ccc2OCc2ccccc2)n1 | logD | 0.7 |
| O=C(O)c1nc(Cc2cc(Cl)ccc2OCc2ccccc2)cs1 | logD | 1.1 |

I = O=C(O)c1cccc(Cc2cc(Cl)ccc2OCc2ccccc2)c1
II = Cn1cc(C(=O)O)nc1Cc1cc(Cl)ccc1OCc1ccccc1
Task item: In terms of reported logD, does I or II have the smaller number? Select an item and report its label.
Reply: II
(II: 0.7, I: 3)

###

molecular target: Prostaglandin E2 receptor EP1 subtype (Homo sapiens, UniProt P34995); assay: Antagonist activity at EP1 receptor by FLIPR assay
pKi: −log10 of the molar value.
quantity: pKi

| given.smiles | pKi |
| --- | --- |
| O=C(O)c1coc(Cc2cc(Cl)ccc2OCc2ccccc2)n1 | 8.80 |
| O=C(O)c1ccc(Cc2cc(Cl)ccc2OCc2ccccc2)o1 | 8.70 |
| Cc1cc(C(=O)O)nn1Cc1cc(Cl)ccc1OCC(C)C | 9.10 |

I = Cc1cc(C(=O)O)oc1Cc1cc(Cl)ccc1OCc1ccccc1
II = CC(C)COc1ccc(Cl)cc1Cc1cccc(C(=O)O)n1
III = O=C(O)c1ccc(Cc2cc(Cl)ccc2OCc2ccccc2)s1
IV = CC(C)COc1ccc(Cl)cc1Cc1ccc(C(=O)O)o1
Task item: List items by pKi in falling order. Please, when replying, give the labels in the order that was requested.
Reply: IV, I, III, II
(IV: 9.50, I: 8.70, III: 7.80, II: 6.80)
